Values compiled from paper PMC3059997.

Catalogue of Tmax readings, one per entry.
assay: Uptake experiment: monoPAP mixture by oral gavage, analytes in whole blood; assay type: in vivo, Sprague-Dawley rats; settings: monoPAP gavage dose; whole blood
assayReadout: Tmax (days)

compound	unitsText	assayValue
O=C(O)C(F)(F)C(F)(F)C(F)(F)C(F)(F)C(F)(F)C(F)(F)C(F)(F)C(F)(F)C(F)(F)F [PFDA, perfluorodecanoate]	days	2
O=C(O)C(F)(F)C(F)(F)C(F)(F)C(F)(F)C(F)(F)F	days	0.17

###

assay: Elimination experiment: diPAP mixture by IV injection, analytes in whole blood; format: in vivo, Sprague-Dawley rats; settings: male, Sprague-Dawley, rat, in vivo, 15 mg/kg; diPAP IV dose; whole blood; read-out: Tmax (converted)
Listed next: entries and their corresponding Tmax.

chemSmiles	Tmax, h
O=C(O)C(F)(F)C(F)(F)C(F)(F)C(F)(F)C(F)(F)C(F)(F)C(F)(F)F	48
O=C(O)C(F)(F)C(F)(F)C(F)(F)C(F)(F)C(F)(F)C(F)(F)F	4
